TARGET: T1, Human IL2Rγ extracellular domain expressed with a C-terminal myc-myc-hexahistidine tag (human)
T1 construct: also called hIL-2Rg-MMH; hIL-2RG-MMH
T1 chain: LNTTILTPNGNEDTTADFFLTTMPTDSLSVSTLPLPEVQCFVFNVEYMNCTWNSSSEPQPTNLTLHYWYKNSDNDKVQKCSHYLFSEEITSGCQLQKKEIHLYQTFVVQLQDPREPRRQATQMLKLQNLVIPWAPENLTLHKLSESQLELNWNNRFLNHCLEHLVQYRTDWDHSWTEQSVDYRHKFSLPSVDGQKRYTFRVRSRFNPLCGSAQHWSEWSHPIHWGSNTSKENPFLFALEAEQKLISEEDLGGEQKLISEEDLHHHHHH
PROCEDURE DETAILS: SPR Biacore 4000, mAb captured by anti-hFc, HBS-ET, 37C
# note: boundary value 200000 M⁻¹ s⁻¹ maps to rule not met; kon below it maps to rule met

BINDER | GROUP
H4H12874P (antibody, human IgG4 S228P, kappa, V domains shown, anti-IL2Rγ monoclonal antibody expressed with human IgG4 Fc) VH: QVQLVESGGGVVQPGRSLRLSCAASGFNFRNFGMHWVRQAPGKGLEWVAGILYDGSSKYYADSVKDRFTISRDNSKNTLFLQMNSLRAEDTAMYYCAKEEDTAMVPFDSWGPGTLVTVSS VL: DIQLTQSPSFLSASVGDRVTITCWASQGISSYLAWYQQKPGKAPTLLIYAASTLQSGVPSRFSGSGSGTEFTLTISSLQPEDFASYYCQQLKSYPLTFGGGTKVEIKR | rule met
H4H12884P (antibody, human IgG4 S228P, kappa, V domains shown, anti-IL2Rγ monoclonal antibody expressed with human IgG4 Fc) VH: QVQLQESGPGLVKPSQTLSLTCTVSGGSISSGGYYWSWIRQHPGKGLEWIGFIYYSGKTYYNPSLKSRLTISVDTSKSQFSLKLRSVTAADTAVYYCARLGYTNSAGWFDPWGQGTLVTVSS VL: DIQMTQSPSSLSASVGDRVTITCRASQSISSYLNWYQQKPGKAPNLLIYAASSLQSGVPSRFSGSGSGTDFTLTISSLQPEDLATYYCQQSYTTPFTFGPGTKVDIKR | rule not met
H4H12900P (antibody, human IgG4 S228P, kappa, V domains shown, anti-IL2Rγ monoclonal antibody expressed with human IgG4 Fc) VH: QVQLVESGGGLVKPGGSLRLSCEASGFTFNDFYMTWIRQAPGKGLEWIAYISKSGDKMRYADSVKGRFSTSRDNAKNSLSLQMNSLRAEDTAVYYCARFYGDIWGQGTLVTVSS VL: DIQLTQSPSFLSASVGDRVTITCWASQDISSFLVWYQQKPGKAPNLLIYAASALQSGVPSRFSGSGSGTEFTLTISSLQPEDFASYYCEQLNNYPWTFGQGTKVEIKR | rule not met
H4H12871P (antibody, human IgG4 S228P, kappa, V domains shown, anti-IL2Rγ monoclonal antibody expressed with human IgG4 Fc; also called REGN9434) VH: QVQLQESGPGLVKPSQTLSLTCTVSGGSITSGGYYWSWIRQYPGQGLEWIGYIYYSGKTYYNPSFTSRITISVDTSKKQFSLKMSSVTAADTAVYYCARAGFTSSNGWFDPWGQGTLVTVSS VL: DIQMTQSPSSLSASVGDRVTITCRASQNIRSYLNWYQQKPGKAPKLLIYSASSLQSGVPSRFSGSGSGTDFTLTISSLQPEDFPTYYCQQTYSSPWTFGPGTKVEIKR | rule not met
H4H12886P (antibody, human IgG4 S228P, kappa, V domains shown, anti-IL2Rγ monoclonal antibody expressed with human IgG4 Fc) VH: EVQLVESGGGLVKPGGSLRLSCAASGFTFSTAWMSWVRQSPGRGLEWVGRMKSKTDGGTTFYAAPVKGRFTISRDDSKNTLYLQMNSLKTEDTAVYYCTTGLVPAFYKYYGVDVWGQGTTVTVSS VL: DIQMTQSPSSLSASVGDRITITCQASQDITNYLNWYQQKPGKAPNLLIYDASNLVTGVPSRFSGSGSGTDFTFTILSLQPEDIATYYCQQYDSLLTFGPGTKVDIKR | rule met

Attribution: patent US20200247894A1
